- Experimental Details: melting temperature; fluorescence melt of hairpins on a sequencing array, two-state fit, raised by 9.35 °C to match UV melts
- Measurement Parameters: sodium 0.088 M
Quantity: Tm
Your reply should be a number followed by the unit it is expressed in.

| Sequence Code | Result |
| --- | --- |
| GTCCTTCGAAAGAAAGAC (((.(((....))).))) | 34.4 °C |
| GCACTACGAAAGTACTGC (((.(((....))).))) | 37.6 °C |
| GCGTTCGAAAGAATACGC ((((((....)))..))) | 47.5 °C |
| GTCCACGAAAGTGAGAC ((((((....))).))) | 52.2 °C |
| CGTGGGCGGAAACGCACG (((..(((....)))))) | 53.1 °C |

Req: Entry GCATTGCGAAAGCAGCGC ((..(((....)))..)) : reported Tm = ?
Resp: 54.9 °C

Req: Now try GATCATGGAGATGATC ((((((....)))))) .
Resp: 49.7 °C

Req: Now try GCGGTCGAAAGACGTCGC ((((((....)))..))) .
Resp: 50.5 °C

Req: Now try GATCTACGTTAGATC ((((((...)))))) .
Resp: 38.3 °C

Req: Now try GATCAGCCTGCTGATC ((((((....)))))) .
Resp: 64.1 °C
